Source: ChEMBL document CHEMBL4330103

System: RPMI-8226
Test description: cells
Format: functional, cell-based
Assay conditions: Homo sapiens, RPMI-8226, 72 h
Description: Growth inhibition of human RPMI8226 cells after 72 hrs by MTT assay
Quantity measured: IC50 (nM)
Give the value in nM but do not write nM after it.

Enquiry: Which IC50 is reported for this molecule? CC1(C)CCC(CN2CCN(c3ccc(C(=O)NS(=O)(=O)c4ccc(NCC5CCOCC5)c([N+](=O)[O-])c4)c(Oc4cnc5[nH]ccc5c4)c3)CC2)=C(c2ccc(Cl)cc2)C1 [VENETOCLAX]
Return: 2700

Enquiry: Same question for CC1(C)CCC(CN2CCN(c3ccc(C(=O)NS(=O)(=O)c4ccc(NCCCCCCC(=O)NO)c([N+](=O)[O-])c4)c(Oc4cnc5[nH]ccc5c4)c3)CC2)=C(c2ccc(Cl)cc2)C1 please.
Return: 300

Enquiry: Same question for CC1(C)CCC(CN2CCN(c3ccc(C(=O)NS(=O)(=O)c4ccc(NCCCCCC(=O)NO)c([N+](=O)[O-])c4)c(Oc4cnc5[nH]ccc5c4)c3)CC2)=C(c2ccc(Cl)cc2)C1 please.
Return: 300

Enquiry: Same question for O=C(CCCCCCNC(=O)c1cnc(N(c2ccccc2)c2ccccc2)nc1)NO [RICOLINOSTAT] please.
Return: 11000

Enquiry: Same question for CC1(C)CCC(CN2CCN(c3ccc(C(=O)NS(=O)(=O)c4ccc(NCCCCCCCC(=O)NO)c([N+](=O)[O-])c4)c(Oc4cnc5[nH]ccc5c4)c3)CC2)=C(c2ccc(Cl)cc2)C1 please.
Return: 200

----------
Measured on: Apoptosis regulator Bcl-2 (Homo sapiens, UniProt P10415)
Sequence (P10415 whole entry): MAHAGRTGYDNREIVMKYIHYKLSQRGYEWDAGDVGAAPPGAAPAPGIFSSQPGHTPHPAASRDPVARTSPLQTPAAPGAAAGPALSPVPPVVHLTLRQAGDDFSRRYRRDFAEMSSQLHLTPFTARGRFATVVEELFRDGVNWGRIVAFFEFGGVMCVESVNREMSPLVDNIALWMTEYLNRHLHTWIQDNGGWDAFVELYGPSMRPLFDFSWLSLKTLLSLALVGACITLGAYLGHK
Quantity measured: IC50 (nM)
Give the value in nM but do not write nM after it.

Enquiry: Which IC50 is reported for this molecule? CC1(C)CCC(CN2CCN(c3ccc(C(=O)NS(=O)(=O)c4ccc(NCCCCCCC(=O)NO)c([N+](=O)[O-])c4)c(Oc4cnc5[nH]ccc5c4)c3)CC2)=C(c2ccc(Cl)cc2)C1
Return: 240

----------
Measured on: Protein deacetylase HDAC6 (Homo sapiens)
Sequence (Q9UBN7 whole entry): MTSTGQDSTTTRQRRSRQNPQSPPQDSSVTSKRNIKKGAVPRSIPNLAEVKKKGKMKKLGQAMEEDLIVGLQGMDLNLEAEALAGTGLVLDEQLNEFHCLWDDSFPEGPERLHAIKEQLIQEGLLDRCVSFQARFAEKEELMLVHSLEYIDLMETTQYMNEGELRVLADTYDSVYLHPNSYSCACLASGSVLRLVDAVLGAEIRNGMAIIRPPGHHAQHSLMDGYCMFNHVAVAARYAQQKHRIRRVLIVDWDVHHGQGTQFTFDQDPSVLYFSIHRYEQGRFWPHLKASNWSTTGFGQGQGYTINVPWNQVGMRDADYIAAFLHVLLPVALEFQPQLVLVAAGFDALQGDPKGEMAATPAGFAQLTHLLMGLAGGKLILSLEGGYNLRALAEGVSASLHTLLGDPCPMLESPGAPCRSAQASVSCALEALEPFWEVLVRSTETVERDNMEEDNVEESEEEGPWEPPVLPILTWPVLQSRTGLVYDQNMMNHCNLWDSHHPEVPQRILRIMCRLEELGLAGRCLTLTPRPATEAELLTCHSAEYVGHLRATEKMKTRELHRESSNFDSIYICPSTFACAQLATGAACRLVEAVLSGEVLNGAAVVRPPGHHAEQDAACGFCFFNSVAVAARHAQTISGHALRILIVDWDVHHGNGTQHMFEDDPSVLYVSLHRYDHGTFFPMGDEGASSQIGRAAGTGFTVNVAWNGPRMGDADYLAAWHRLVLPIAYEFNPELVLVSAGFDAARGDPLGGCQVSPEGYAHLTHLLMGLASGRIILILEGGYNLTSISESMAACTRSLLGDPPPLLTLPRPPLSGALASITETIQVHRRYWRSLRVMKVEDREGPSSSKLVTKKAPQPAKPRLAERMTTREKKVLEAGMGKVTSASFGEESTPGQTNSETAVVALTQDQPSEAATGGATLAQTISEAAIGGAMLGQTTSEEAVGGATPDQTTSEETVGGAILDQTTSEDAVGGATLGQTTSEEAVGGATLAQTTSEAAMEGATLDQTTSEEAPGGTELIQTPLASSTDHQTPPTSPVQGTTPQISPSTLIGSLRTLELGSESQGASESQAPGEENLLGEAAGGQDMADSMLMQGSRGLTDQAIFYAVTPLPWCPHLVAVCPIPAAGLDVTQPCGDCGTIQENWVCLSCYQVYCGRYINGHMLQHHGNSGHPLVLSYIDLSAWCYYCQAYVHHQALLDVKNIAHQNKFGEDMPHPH
Test description: Inhibition of full length recombinant human N-terminal GST-tagged HDAC6 expressed in baculovirus infected sf9 cells preincubated for 5 mins followed by biotinylated H3K9-Ac substrate addition and measured after 60 mins by HTRF assay
IC50 values, listed per item

1) CC1(C)CCC(CN2CCN(c3ccc(C(=O)NS(=O)(=O)c4ccc(NCCC(=O)NO)c([N+](=O)[O-])c4)c(Oc4cnc5[nH]ccc5c4)c3)CC2)=C(c2ccc(Cl)cc2)C1 :: > 1000 nM
2) CC1(C)CCC(CN2CCN(c3ccc(C(=O)NS(=O)(=O)c4ccc(NCCCCCC(=O)NO)c([N+](=O)[O-])c4)c(Oc4cnc5[nH]ccc5c4)c3)CC2)=C(c2ccc(Cl)cc2)C1 :: 28 nM
3) CC1(C)CCC(CN2CCN(c3ccc(C(=O)NS(=O)(=O)c4ccc(NCCCCCCCC(=O)NO)c([N+](=O)[O-])c4)c(Oc4cnc5[nH]ccc5c4)c3)CC2)=C(c2ccc(Cl)cc2)C1 :: 19 nM

Enquiry: Which IC50 is reported for this compound? CC1(C)CCC(CN2CCN(c3ccc(C(=O)NS(=O)(=O)c4ccc(NCCCCCCC(=O)NO)c([N+](=O)[O-])c4)c(Oc4cnc5[nH]ccc5c4)c3)CC2)=C(c2ccc(Cl)cc2)C1
Return: 28 nM

Enquiry: Same question for CC1(C)CCC(CN2CCN(c3ccc(C(=O)NS(=O)(=O)c4ccc(NCCCC(=O)NO)c([N+](=O)[O-])c4)c(Oc4cnc5[nH]ccc5c4)c3)CC2)=C(c2ccc(Cl)cc2)C1 please.
Return: > 1000 nM

Enquiry: Same question for CC1(C)CCC(CN2CCN(c3ccc(C(=O)NS(=O)(=O)c4ccc(NCC(=O)NO)c([N+](=O)[O-])c4)c(Oc4cnc5[nH]ccc5c4)c3)CC2)=C(c2ccc(Cl)cc2)C1 please.
Return: > 1000 nM

Enquiry: Same question for CC1(C)CCC(CN2CCN(c3ccc(C(=O)NS(=O)(=O)c4ccc(NCCCCC(=O)NO)c([N+](=O)[O-])c4)c(Oc4cnc5[nH]ccc5c4)c3)CC2)=C(c2ccc(Cl)cc2)C1 please.
Return: > 1000 nM
